Biological target: NACHT, LRR and PYD domains-containing protein 3 (Homo sapiens)
propertyName: pIC50
On this scale, pIC50 is minus log10 of a concentration expressed in M (mol/L).

• COC[C@@H]1CCN(S(=O)(=O)NC(=O)c2coc(Nc3cc(C)c(F)cc3C)n2)CCO1 = 7.26
• Cc1cc(Nc2nc(C(=O)NS(=O)(=O)N3CCOC(C(C)(C)O)CC3)co2)c(C)cc1F (centres undefined) = 7.31
• Cc1ccc(C(F)(F)F)cc1Nc1nc(C(=O)NS(=O)(=O)N2CCOCC(F)(F)C2)co1 = 7.77

Task: So what pIC50 did "CC(C)c1ccc(C(F)(F)F)cc1Nc1nc(C(=O)NS(=O)(=O)N2CCCN(C)CC2)co1" get with NACHT, LRR and PYD domains-containing protein 3 (Homo sapiens)?
Output: 6.68

* * *

NACHT, LRR and PYD domains-containing protein 3 (Homo sapiens, UniProt Q96P20): reported pIC50 for various molecules.
Sequence (Q96P20 whole entry, the tested form may be a part): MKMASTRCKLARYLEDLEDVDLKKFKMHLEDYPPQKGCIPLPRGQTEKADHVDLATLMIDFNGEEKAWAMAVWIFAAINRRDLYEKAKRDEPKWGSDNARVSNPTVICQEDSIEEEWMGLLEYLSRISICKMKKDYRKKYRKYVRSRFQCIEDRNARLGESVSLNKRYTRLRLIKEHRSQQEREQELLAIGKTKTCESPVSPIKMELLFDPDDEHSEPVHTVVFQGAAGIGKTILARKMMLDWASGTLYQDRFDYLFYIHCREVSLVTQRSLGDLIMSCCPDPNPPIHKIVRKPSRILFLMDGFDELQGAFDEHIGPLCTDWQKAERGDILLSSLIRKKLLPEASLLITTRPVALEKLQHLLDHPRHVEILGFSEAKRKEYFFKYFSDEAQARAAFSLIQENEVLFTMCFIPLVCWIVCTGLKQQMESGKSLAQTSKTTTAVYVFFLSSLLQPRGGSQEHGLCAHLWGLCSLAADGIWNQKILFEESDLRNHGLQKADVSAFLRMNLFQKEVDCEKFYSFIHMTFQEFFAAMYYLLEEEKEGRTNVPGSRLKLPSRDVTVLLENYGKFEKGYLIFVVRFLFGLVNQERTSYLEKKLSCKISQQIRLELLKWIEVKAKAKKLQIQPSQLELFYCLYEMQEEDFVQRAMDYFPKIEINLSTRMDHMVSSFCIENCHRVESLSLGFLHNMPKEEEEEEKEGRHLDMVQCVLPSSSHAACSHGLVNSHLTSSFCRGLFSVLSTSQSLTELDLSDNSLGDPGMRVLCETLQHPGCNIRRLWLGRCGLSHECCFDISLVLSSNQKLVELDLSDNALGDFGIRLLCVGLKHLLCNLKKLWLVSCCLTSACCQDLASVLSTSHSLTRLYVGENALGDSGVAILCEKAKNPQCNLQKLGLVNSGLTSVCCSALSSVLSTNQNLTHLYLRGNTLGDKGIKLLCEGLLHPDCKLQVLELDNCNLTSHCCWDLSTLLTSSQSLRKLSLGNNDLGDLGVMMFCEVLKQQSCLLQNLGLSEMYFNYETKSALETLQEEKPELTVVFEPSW
Scale explanation: pIC50 corresponds to minus log10 of a concentration expressed in moles per litre.

- Cc1noc(C2(C)CCN(S(=O)(=O)NC(=O)c3coc(Nc4cc(C(F)(F)F)ccc4C)n3)CC2)n1 [US20230399319, Example 2-285]: 6.77
- Cc1ccc(C(F)(F)F)cc1Nc1nc(C(=O)NS(=O)(=O)N(C)CC2CCCC2)co1 [US20230399319, Example 2-208]: 7.05
- Cc1ccc(C(F)(F)F)cc1Nc1nc(C(=O)NS(=O)(=O)N2CCC(c3ccccc3)CC2)co1 [US20230399319, Example 2-282]: 5.60
- Cc1ccc(C(F)(F)F)cc1Nc1nc(C(=O)NS(=O)(=O)N(C)CCC(=O)N(C)C)co1 [US20230399319, Example 2-338]: 7.11
- Cc1ccc(C(F)(F)F)cc1Nc1nc(C(=O)NS(=O)(=O)N(C)CCc2ccccn2)co1 [US20230399319, Example 2-287]: 7.19
- Cc1ccc(C(F)(F)F)cc1Nc1nc(C(=O)NS(=O)(=O)N2CCOC3(COC3)C2)co1 [US20230399319, Example 2-017]: 7.08

Task: Short answer please: pIC50, NACHT, LRR and PYD domains-containing protein 3 (Homo sapiens, UniProt Q96P20), entry CCC(C)n1cc(C)c(Nc2nc(C(=O)NS(=O)(=O)N3CCCOCC3)co2)n1 (configuration not stated) [US20230399319, Example 2-200]
Output: 5.96

* * *

Target: NACHT, LRR and PYD domains-containing protein 3 (Homo sapiens, UniProt Q96P20)
propertyName: pIC50
Here pIC50 is given on a logarithmic scale as minus log10 of the concentration in mol/L.

- Cc1ccc(C(F)(F)F)cc1Nc1nc(C(=O)NS(=O)(=O)N2CCCC(C#N)CC2)co1 (stereo not drawn) [US20230399319, Example 2-141]: 8.01
- Cc1ccc(C(F)(F)F)cc1Nc1nc(C(=O)NS(=O)(=O)N2[C@H](C)CCC[C@@H]2C)co1 [US20230399319, Example 2-053]: 7.05
- Cc1ccc(C(F)(F)F)cc1Nc1nc(C(=O)NS(=O)(=O)N2CCCC(F)(F)CC2)co1 [US20230399319, Example 2-234]: 7.30
- COC[C@H]1CCCN1S(=O)(=O)NC(=O)c1coc(Nc2cc(C(F)(F)F)ccc2C)n1 [US20230399319, Example 2-052]: 6.89
- CC(=O)NCCN(C)S(=O)(=O)NC(=O)c1coc(Nc2cc(C(F)(F)F)ccc2C)n1 [US20230399319, Example 2-162]: 6.52

Task: Quick check: pIC50 of Cc1cn(C2CCCC2)nc1Nc1nc(C(=O)NS(=O)(=O)N2CCCOCC2)co1 [US20230399319, Example 2-153] ?
Output: 5.64

Task: Request the reported pIC50 associated with Cc1ccc(C(F)(F)F)cc1Nc1nc(C(=O)NS(=O)(=O)N2CCCC(N(C)C)CC2)co1 (stereo not drawn) [US20230399319, Example 2-173]
Output: 6.92

Task: What measured pIC50 goes with Cc1ccc(C(C)CC#N)cc1Nc1nc(C(=O)NS(=O)(=O)N(C)C)co1 (stereo not drawn) [US20230399319, Example 2-096] ?
Output: 5.74
